Experiment: yeast display, Sf9 membrane polyspecificity reagent, FACS + sequencing; frameworks hold sequencing errors
reported-metric: polyreactivity (PSR sort gate)

Worked examples follow.
| biosequence | polyreactivity (PSR sort gate) |
| --- | --- |
| QVQLVESGGGLVQAGGSLRLSCAASGNTFWSYAMGWYRQAPGKERELVAAISFSGGSTNYADSVKGRFTISRDNAKNTVYLQMNSLKPEDTAVYYCAAYFYAPLTYYSWYDYWGQGTQVTVSS | high polyreactivity |
| QDQLGESGGGLVQAGGSLRLSCAASGRSFTYYTMGWYRQAPGKERELVATINNSGGSTYYADSVKGRFTISRDNAKNTVYLQMNSLKPEDTAVYYCAKVLGLPYGAPRSIFVEWEMDYWGQGTQVTVSS | low polyreactivity |
| QVHLVESGGGLVQAGGSLRLSCAASGSTFWGYTMGWYRQAPGKERELVAAISTIGGSTYYADSVKGRFTISRDNAKNTVYLQMNSLKTEDTAVYYCAAYKGKHYKEGYWGQGTQVTVSS | low polyreactivity |
| QVQLVESGGGLVQAGGSLRLSCAASGFTFRRYVMGWYRQAPGKERELVAAISSGGRTNYADSVKGRFTISRYNAKNTVYLQMNSLKPEDTAVYYCNKASTSYYRFNYWGQGTQVTVSS | high polyreactivity |
| QVQLVESGGGLVQAGGSLRLICAASGFSLYRNSMGWYRQAPGTERELVAAISSSGGRTYYADSVKGRFTISRDNAKNTVYLQMNSLKPEDTAVYYCAADFYRYGPQLGYWGQGTQVTVSS | high polyreactivity |

GET /value?item= QVQLVESGGGLVQAGGSLRLSCAATGSTFRYYAMGWYRQAPGKERELVAAISASGSSTYYADSVKGRFTISRHNAKNTVFLQMYSLKPEDTAVYYCATRQFYVRLGYYSWGQGTQVTVSS &field=polyreactivity (PSR sort gate) returns high polyreactivity

Reported polyreactivity (PSR sort gate) ( QVQLVESGGGLFQEGGSLRLSCAASGRIFGPYDMGWYRQAPGKERELVAAISQRGGTTYYADSVKGRFTISRDNAKNTVYLQMNSLKPEVTAVYYCAPKTYGWGQGTQVNVSS ) = high polyreactivity

Form field polyreactivity (PSR sort gate), entry QVQLVESGGGLVQAGGSLRLSCAASGSTLSFNAMGWYRQAPGKERELVAGITYSGGSTYYADYVKGRFTISRDNAKNTVYLQMNSLKPEDTAVYYCNKASGVYYGHLDYWGQGTQVTVSS : low polyreactivity

Field polyreactivity (PSR sort gate) (entry QVQLVESGGGLVQAGGSLRLSCAASGRTITWNAMGWYRQAPGKERELVADITNNGGSTYYADSVKGRFTISRDNAKNTVYLQMNSLKPEDTAVYYCAKRRNYWFSFDYWGQGTQVTVSS ) reads low polyreactivity

polyreactivity (PSR sort gate) reading for QVQLVESGGGLVQAGGSLRLSCAASGRIFRYNAMGWYRQAPGKEREFVAAITQSGGSTYYADSVKGRFTISRDNAKNTVYLQMNRLKPEDTAVYYSAADRFYWTYLNYQFLTDYWGQGTQVNVSS : high polyreactivity

Sure, the documented polyreactivity (PSR sort gate) for QVQLVESGGGLVQAGGSLRLSCAASGSTFYTYAMGWYRQAPGKERELVAAIRGRGGRTYYADSVKGRFTISRDNAKNTVYLQMNSLKPEDTSVYYCNADGYAYYRATTRFDYWGQGTQVTVSS is high polyreactivity

Hello, the source for this data is the nanobody polyreactivity screen of Harvey et al. (2022), in case you need it.
